Entries and their measured GI50 follow.
system: DMS-114; experiment: NCI tumour cell line growth inhibition, 48 h
Activity calls are given as the source filed them. Cut-off read from the data, not from the text of the source: active = GI50 up to about 1.1 µM and inactive = higher.

A selection of reference data follows.
COc1ccc2c(OC)c3ccoc3nc2c1O ... > 100 µM (inactive)
CCCCCCCCCCCCCCCCCC(=O)NCC(COP(=O)([O-])OCC[N+](C)(C)C)OCC (stereo unspecified) ... 18.5 µM (inactive)
CNc1nc(N)cc(O)n1 ... > 100 µM (inactive)

Problem: Need GI50, item O=C1NC2(CCCCC2)C2CCCCC(O)C12 (stereo unspecified)
Solution: > 100 µM (inactive)

Problem: Need GI50, item `COc1c(Br)cc(Br)c(OC)c1-c1[nH]c(Br)c(Br)c1Br`
Solution: 4.8 µM (inactive)

Problem: Need GI50, item Cc1ccccc1N1C(=O)C2C=CC(n3[nH]c(=O)n(Cc4ccccc4)c3=O)CC2C1=O (stereo unspecified)
Solution: > 100 µM (inactive)
